Molecular target: recombinant human GAA (rhGAA, Myozyme) (Homo sapiens, UniProt P10253)
Construct: purchased Genzyme
Experiment: competitive FluoPol-ABPP assay on rhGAA with TAMRA-ABP II;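 further: fluorescence polarization read at 540 nm excitation and 590 nm emission, background-corrected, normalized to uninhibited probe labelling as 100% and excess cyclosulfate as 0%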
Assay type: biochemical
Conditions: library screen, 5 μM inhibitor, 25 nM ABP II
metric-name: GAA FP% (residual FP-signal) (%)

Worked cases, GAA FP% (residual FP-signal) given:
C[C@@H](OCCCCCN1C[C@H](O)[C@@H](O)[C@H](O)[C@H]1CO)c1ccc(-c2ccccc2)cc1 [#ID 345]
1.5
OC[C@@H]1[C@@H](O)[C@H](O)[C@@H](O)CN1CCCCCOCc1ccc(-c2ccccc2)c(C(F)(F)F)c1 [#ID 120]
2.4
COc1ccc(-c2ccc(COCCCCCN3C[C@H](O)[C@@H](O)[C@H](O)[C@H]3CO)cc2)cc1 [#ID 305]
0.3
COc1cccc(-c2ccc(COCCCCCN3C[C@H](O)[C@@H](O)[C@H](O)[C@H]3CO)cc2)c1 [#ID 306]
0.8
OC[C@@H]1[C@@H](O)[C@H](O)[C@@H](O)CN1CCCCCOCc1ccc(-c2ccncc2)cc1 [#ID 316]
1.1

(P) CC(C)(C)COCCOCCN1C[C@H](O)[C@@H](O)[C@H](O)[C@H]1CO [#ID 89]
(Q) OC[C@@H]1[C@@H](O)[C@H](O)[C@@H](O)CN1CCCCCOCc1ccc(-c2ccccc2)cn1 [#ID 336]
Query block: Returns: the label, P or Q , whose recorded GAA FP% (residual FP-signal) is the lower number. Mark your answer with the label of the selected entry.
Result block: Q

(P) CCCCCCOCCCCCN1C[C@H](O)[C@@H](O)[C@H](O)[C@H]1CO [#ID 21]
(Q) OC[C@@H]1[C@@H](O)[C@H](O)[C@@H](O)CN1CCCCCOCc1ccc(-c2ccc(C(F)(F)F)cc2)cc1 [#ID 307]
Query block: Consider P and Q . Which of these has its GAA FP% (residual FP-signal) at a higher number? Mark your answer with the label of the selected entry.
Result block: P
(P: 17%, Q: 2.5%)
